Data provenance is ChEMBL document CHEMBL1149662.

# systemTested: Melanocortin receptor 4 (Homo sapiens)
# Sequence (P32245 whole entry): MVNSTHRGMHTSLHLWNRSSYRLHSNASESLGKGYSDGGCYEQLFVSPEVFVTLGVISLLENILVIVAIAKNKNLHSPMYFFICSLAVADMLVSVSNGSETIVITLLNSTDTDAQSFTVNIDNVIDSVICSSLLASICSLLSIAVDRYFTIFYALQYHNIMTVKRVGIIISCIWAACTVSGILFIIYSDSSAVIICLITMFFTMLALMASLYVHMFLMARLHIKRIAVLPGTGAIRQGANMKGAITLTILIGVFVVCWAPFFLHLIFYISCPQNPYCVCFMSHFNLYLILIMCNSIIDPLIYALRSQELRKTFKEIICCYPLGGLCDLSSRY
# methodNotes: Displacement of [125I]NDP-MSH from human recombinant MC4 receptor expressed in Sf9 cells
pKi: −log10 of the molar value.
quantity: pKi

Record excerpt, results attached:
- NC1CCCC(NC(=O)NC2CCCC(N(Cc3ccccc3)C(=O)CCCc3c[nH]c4ccccc34)C2)C1 (centres undefined): 5.28
- CCOc1cc(CN(C(=O)CCCc2c(Cc3ccc(O)cc3)[nH]c3ccccc23)C2CCC(CC3CCC(N)CC3)CC2)ccc1OC (centres undefined): 5.68
- NCCCN(C(=O)/C=C/c1c[nH]c2ccccc12)C1CCc2ccccc2C1 (centres undefined): 4.96
- NCc1ccc(CN(C/C=C/c2ccccc2)C(=O)CCCc2c[nH]c3ccccc23)cc1: 5.14
- CC(c1ccc(C(F)(F)F)cc1)N(CCCCCN)C(=O)Cc1c[nH]c2ccccc12 (centres undefined): 4.80

I. NC1CCCC(NC(=O)NC2CCCC(N(Cc3ccccc3)C(=O)CCCc3c(Cc4ccc(O)cc4)[nH]c4ccccc34)C2)C1 (centres undefined)
II. NCCCN(C/C=C/c1ccccc1)C(=O)Cc1c[nH]c2ccccc12
[ask] In the pair I and II , the larger recorded pKi belongs to which? Answer with the label corresponding to your selection.
[reply] I
(I: 5.19, II: 4.59)

P. NCC1CCCC(CN(C/C(Cl)=C/c2ccccc2)C(=O)CCCc2c[nH]c3ccccc23)C1 (centres undefined)
Q. COc1cc(Cl)c(CN(C(=O)CCCc2c[nH]c3ccccc23)C2CCC(CC3CCC(N)CC3)CC2)cc1OC (stereo in doubt; form 1)
[ask] In the pair P and Q , the larger recorded pKi belongs to which? Answer with the label corresponding to your selection.
[reply] Q
(Q: 5.64, P: 5.43)

* * *

# systemTested: Melanocortin receptor 5 (Homo sapiens)
# Sequence (P33032 whole entry): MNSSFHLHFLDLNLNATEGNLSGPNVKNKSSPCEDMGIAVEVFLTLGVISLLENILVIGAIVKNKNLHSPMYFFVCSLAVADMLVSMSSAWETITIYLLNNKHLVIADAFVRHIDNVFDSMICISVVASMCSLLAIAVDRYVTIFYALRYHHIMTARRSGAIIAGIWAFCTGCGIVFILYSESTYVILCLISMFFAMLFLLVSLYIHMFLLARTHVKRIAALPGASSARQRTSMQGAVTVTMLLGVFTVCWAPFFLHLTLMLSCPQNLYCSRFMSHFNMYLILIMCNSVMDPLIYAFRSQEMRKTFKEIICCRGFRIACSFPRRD
# methodNotes: Displacement of [125I]NDP-MSH from human recombinant MC5 receptor expressed in Sf9 cells
pKi: −log10 of the molar value.
quantity: pKi

1. NCCCCCCCN(C/C(Cl)=C/c1ccccc1)C(=O)CCCc1c[nH]c2ccccc12
2. COc1ccccc1/C=C/CN(C(=O)CCCc1c[nH]c2ccccc12)C1CCC(CC2CCC(N)CC2)CC1 (stereo in doubt; form 2)
3. NC1CCC(CC2CCC(N(Cc3ccccc3)C(=O)CCCc3c[nH]c4ccccc34)CC2)CC1 (stereo in doubt; 10d-40-8)
[ask] Rank entries according to their pKi, from the largest number down. I'd appreciate it if you listed the labels in the requested order.
[reply] 2, 3, 1

a. NCCCCCN(Cc1ccccc1)C(=O)CCCc1c(Cc2ccc(O)cc2)[nH]c2ccccc12
b. COc1ccc(CN(C(=O)CCCc2c(Cc3ccc(O)cc3)[nH]c3ccccc23)C2CCC(CC3CCC(N)CC3)CC2)cc1Br (stereo not drawn)
[ask] Record comparison, field pKi: mark the lower of a and b . Answer with the label corresponding to your selection.
[reply] b

A. Cc1ccccc1CN(C(=O)CCCc1c(Cc2ccc(O)cc2)[nH]c2ccccc12)C1CCC(CC2CCC(N)CC2)CC1 (stereo not drawn)
B. NCCCCCCN(Cc1ccccc1)C(=O)CCCc1c(Cc2ccc(O)cc2)[nH]c2ccccc12
C. NCCN(C(=O)Cc1c[nH]c2ccccc12)C1CCc2ccccc2C1 (stereo not drawn)
D. NC1CCC(CC2CCC(N(Cc3ccncc3)C(=O)CCCc3c[nH]c4ccccc34)CC2)CC1 (stereo in doubt; form 2)
E. CSc1ccc(CN(C(=O)CCCc2c(Cc3ccc(O)cc3)[nH]c3ccccc23)C2CCC(CC3CCC(N)CC3)CC2)cc1 (stereo not drawn)
[ask] List from greatest to least pKi. I'd appreciate it if you listed the labels in the requested order.
[reply] B, A, E, C, D

I. NCCCN(C(=O)c1c[nH]c2ccccc12)C1CCc2ccccc2C1 (stereo not drawn)
II. N[C@H]1CC[C@H](NC(=O)NC2CCCC(N(Cc3ccccc3)C(=O)CCCc3c[nH]c4ccccc34)C2)CC1 (stereo partly drawn)
III. NCCN(C(=O)CCCc1c[nH]c2ccccc12)C1CCC2(CCCCC2)CC1
IV. NCCCCCCCN(Cc1ccccc1)C(=O)CCCc1c[nH]c2ccccc12
[ask] Please list these in order of increasing pKi. Thank you! I'd appreciate it if you listed the labels in the requested order.
[reply] II, I, III, IV
(II: 4.43, I: 4.64, III: 4.92, IV: 5.49)

a. N=C(N)NC1CCC(CC2CCC(N(C/C=C/c3ccccc3)C(=O)CCCc3c[nH]c4ccccc34)CC2)CC1 (stereo not drawn)
b. NCC1CCC(CN(Cc2ccccc2)C(=O)CCCc2c[nH]c3ccccc23)CC1 (stereo not drawn)
[ask] Record comparison, field pKi: mark the lower of a and b . Answer with the label corresponding to your selection.
[reply] a
(a: 4.43, b: 4.74)

A. NC1CCCC(NC(=O)N[C@H]2CC[C@H](N(Cc3ccccc3)C(=O)CCCc3c[nH]c4ccccc34)CC2)C1 (stereo partly drawn)
B. NCCN(C/C=C/c1ccccc1)C(=O)CCc1c[nH]c2ccccc12
[ask] Record comparison, field pKi: mark the lower of A and B . Answer with the label corresponding to your selection.
[reply] A
(A: 4.28, B: 4.89)
